Form field: logD (one value per entry).
CONDITION: pH 7.0
READOUT_NAME: logD

{"columns": ["MOLECULE", "MEAS_VALUE"],
 "data": [
  ["COc1ccc2c(c1OC)-c1ccc(OC)c(=O)cc1[C@@H](NC(C)=O)CC2", 1.02],
  ["COc1cccc2c1C(=O)c1c(O)c3c(c(O)c1C2=O)CC(O)(C(=O)CO)CC3OC1CC(O)C(O)C(C)O1 (configuration not stated)", 1.75],
  ["Cc1cn([C@@H]2O[C@H](CO)[C@@H](O)[C@H]2O)c(=O)nc1N", -2.01],
  ["Nc1nc2c(ncn2[C@@H]2O[C@H](CO)[C@@H](O)[C@@H]2F)c(=O)[nH]1", -1.18],
  ["S=c1nc(-c2ccccc2)[nH][nH]1", 1.84],
  ["CCC1COC(Cn2cncn2)(c2ccc(-n3cncn3)cc2Cl)O1 (configuration not stated)", 1.28],
  ["Nc1nc(Cl)c2ncn([C@@H]3O[C@H](CO)C[C@@H]3F)c2n1", 0.28],
  ["CCOC(=O)N[C@H]1CCc2cc(OC)c(OC)c(OC)c2-c2ccc(OC)c(=O)cc21", 1.3],
  ["Nc1nc(=O)n([C@H]2CC[C@@H](CO)O2)cc1I", -0.31],
  ["Clc1ccc(C2(Cn3cncn3)OCC3(CCC4OC4C3)CO2)c(Cl)c1 (configuration not stated)", 1.87],
  ["Nc1nc(=O)n([C@H]2CC[C@@H](CO)O2)cc1Br", -0.48],
  ["CCCCC#N", 1.12]
]}

---

CONDITION: pH 1.0
Residues, ends and D or L forms follow the SMILES beside them. *: point of attachment. Boc = CC(C)(C)OC(=O)*
Grouping by measured logD is done with the following cut points: zone 1 = under 0.6, zone 2 = from 0.6 up to 2, zone 3 = 2 and over

{"columns": ["MOLECULE", "CLASS"],
 "data": [
  ["O=C(O)c1cc2ccccc2o1", "zone 3"],
  ["CCC(C)C#N (centres undefined)", "zone 2"],
  ["CC(C)(C)OC(=O)N[C@@H](Cc1ccccc1)C(=O)N[C@@H](Cc1ccc(O)cc1)C(=O)O (Boc-Phe-Tyr-OH)", "zone 3"],
  ["CC(C)(C)C#N", "zone 2"],
  ["CC(C)CC#N", "zone 2"],
  ["O=C(O)C1CC1", "zone 2"],
  ["CC1CC(C(=O)O)=C(C(=O)O)C(C)C1 (centres undefined)", "zone 2"],
  ["Cn1nnnc1SCC1=C(C(=O)O)N2C(=O)[C@@H](NC(=O)[C@H](O)c3ccccc3)[C@H]2SC1", "zone 1"],
  ["N#CCC(=O)O", "zone 1"]
]}

---

Form field: logP (one value per entry).

{"columns": ["COMPOUND", "logP"],
 "data": [
  ["COc1ccc(S(C)(=O)=O)cc1", 0.76],
  ["COC(=O)c1cc(S(N)(=O)=O)ccc1SCCCO", 0.78],
  ["COc1ccc2cc(C(C)C(=O)OCC(=O)N(C)CC(N)=O)ccc2c1 (stereo unspecified)", 1.37],
  ["CCOC(=O)C(F)F", 0.87],
  ["Cc1ccc(-c2noc(C)n2)cc1", 2.74],
  ["Cc1cccc(C)c1N", 1.84],
  ["NS(=O)(=O)Cc1ccccc1", 0.13],
  ["O=C(Nc1ccc(Cl)cc1)c1cccnc1", 2.53],
  ["CC(=O)Oc1ccc(N)cc1", 0.45],
  ["CC(C)SC(C)C", 2.84],
  ["CCN(C(=O)SCc1ccccc1)C(C)C(C)C (stereo unspecified)", 4.6]
]}
